assay summary: folding stability dG unfold from trypsin proteolysis; higher = more stable
Classification field: rule met = folding stability dG unfold at or over 1 kcal/mol; rule not met = folding stability dG unfold under 1 kcal/mol.

Could you verify whether the entry SAGGSAPVVEYEFVDPGNGRKVKIEVYPHPDGNYQMSIEVYDPGKPVEKIPFWMPPGEMPIEDLLKSAGGSA [r15_147_TrROS] shows folding stability dG unfold of no less than 1 kcal/mol? rule not met

Could you verify whether the entry SMKKNTLTLTVKVKVTVTVVKKKKDGKEEVVKKETVEVTVKVTFLSKEELEKLKKELEKLKKELEELKKKSA [r9_1192_TrROS_Hall] shows folding stability dG unfold of no less than 1 kcal/mol? rule met

Could you verify whether the entry SAGGSAGGSAGGKKVYKVPSLEEALELAKKNKGKTVEIEVDGKKYKFNKNGKIVEIEPVKSAGGSAGGSAGG [r7_532_TrROS_Hall] shows folding stability dG unfold of no less than 1 kcal/mol? rule met

Could you verify whether the entry SAGSSTTLTFPVDTKIPDEKGNPLSSSTVTVTVNPSPGKVTATLTDPATGTVTTVEFGSLEKVEAFLSSSAG [r14_508_JUSTAS] shows folding stability dG unfold of no less than 1 kcal/mol? rule met

Could you verify whether the entry SAGGSAGGGGTLTIEVDAPAGAKKINIELPGGTVSNLSYDPSTGKATIPFDTPEQAKAVEALVGSAGGSAGG [r6_745_TrMRF] shows folding stability dG unfold of no less than 1 kcal/mol? rule not met

Could you verify whether the entry SAGGSAGGSAGGSAKITIEYNPETNTLTVTITLENGEKVEITVPPNATLEEIEELAKKASAGGSAGGSAGGS [r4_205_TrROS_Hall] shows folding stability dG unfold of no less than 1 kcal/mol? rule met

Could you verify whether the entry SAGGSAGGSAGGMKIVLKVPENNPEAEKEAKKLKEEPGLKEVEVEFIPKSLVPEEPVLLSAGGSAGGSAGGS [r10_1110_JUSTAS] shows folding stability dG unfold of no less than 1 kcal/mol? rule not met
